molecular target: p38 MAPKα isoform (MAPK14) (Homo sapiens, UniProt Q16539); construct: purchased Life Technologies; assay: p38 MAPKα enzyme inhibition (Z-LYTE FRET); type: biochemical; conditions: Table 2B, unit inferred; read-out: p38 MAPKα (Enzyme Profile)
Sequence (Q16539 whole entry, canonical isoform): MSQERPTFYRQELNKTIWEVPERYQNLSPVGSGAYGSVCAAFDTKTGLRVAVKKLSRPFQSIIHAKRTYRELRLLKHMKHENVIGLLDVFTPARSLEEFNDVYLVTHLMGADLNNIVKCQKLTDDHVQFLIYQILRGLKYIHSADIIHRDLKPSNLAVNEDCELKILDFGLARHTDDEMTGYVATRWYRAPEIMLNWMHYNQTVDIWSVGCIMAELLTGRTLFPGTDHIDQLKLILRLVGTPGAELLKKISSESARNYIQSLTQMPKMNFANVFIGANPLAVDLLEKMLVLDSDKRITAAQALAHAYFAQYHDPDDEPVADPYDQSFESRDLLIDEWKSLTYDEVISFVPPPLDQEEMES
readout.label: IC50 (nM)

Below: 3 compounds and their reported IC50.
>>> print(df.to_string())
                                 cpd_smiles  experimental_result
0  Cc1cc(C)cc(-n2nc(C(C)(C)C)cc2NC(=O)Nc2ccc(OCc3ccnc(Nc4cnccn4)c3)c3ccccc23)c1                   19
1  COc1ccc(-n2nc(C(C)(C)C)cc2NC(=O)Nc2ccc(OCc3ccnc(Nc4cnc(CO)cn4)c3)c3ccccc23)cc1C                  7.3
2  COc1cc(C)cc(-n2nc(C(C)(C)C)cc2NC(=O)Nc2ccc(OCc3ccnc(Nc4cnccn4)c3)c3ccccc23)c1                   29

[1] COCCN(C)C(=O)c1cnc(Nc2cc(COc3ccc(NC(=O)Nc4cc(C(C)(C)C)nn4-c4cccc(C)c4)c4ccccc34)ccn2)cn1
[2] CCc1cncc(Nc2cc(COc3ccc(NC(=O)Nc4cc(C(C)(C)C)nn4-c4ccc(OC)nc4)c4ccccc34)ccn2)n1
I'm curious whether 1 or 2 has the smaller IC50 number. Which is it? Lab log: write the label of the selected item as the result.
1

----------
Target: p38MAPKγ (MAPK12) (Homo sapiens, UniProt P53778)
Construct: purchased Life Technologies
Sequence (P53778 1-367): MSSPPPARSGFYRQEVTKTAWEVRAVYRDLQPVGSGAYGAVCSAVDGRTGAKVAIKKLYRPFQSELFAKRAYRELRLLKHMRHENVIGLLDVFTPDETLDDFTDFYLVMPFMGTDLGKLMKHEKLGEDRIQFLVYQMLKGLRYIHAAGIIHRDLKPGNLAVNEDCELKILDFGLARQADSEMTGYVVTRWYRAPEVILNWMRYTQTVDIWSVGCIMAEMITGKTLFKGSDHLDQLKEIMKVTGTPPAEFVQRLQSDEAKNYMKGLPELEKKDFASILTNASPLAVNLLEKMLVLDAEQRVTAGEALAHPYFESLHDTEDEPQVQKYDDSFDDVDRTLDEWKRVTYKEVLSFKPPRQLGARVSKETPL
Assay: p38 MAPKγ enzyme inhibition (Z-LYTE FRET)
Format: biochemical
Conditions: Table 2B, unit inferred; read-out: p38 MAPKγ (Enzyme Profile)
readout.label: IC50 (nM)

[A] CC(C)(C)c1cc(NC(=O)Nc2ccc(OCc3ccnc(Nc4cnc(CO)cn4)c3)c3ccccc23)n(-c2cccc(F)c2)n1
[B] CCc1ccc(-n2nc(C(C)(C)C)cc2NC(=O)Nc2ccc(OCc3ccnc(Nc4cncc(CC)n4)c3)c3ccccc23)cc1
Between the two listed entries A and B , which has its IC50 at the higher number? Lab log: write the label of the selected item as the result.
B
(B: 571 nM, A: 75 nM)

----------
molecular target: p38MAPKγ (MAPK12) (Homo sapiens); construct: purchased Life Technologies; assay: p38 MAPKγ enzyme inhibition (Z-LYTE FRET); format: biochemical; settings: Table 2B, unit inferred; read-out: p38 MAPKγ (Enzyme Profile)
pIC50: −log10 of the molar value.
readout.label: pIC50

Below: 2 molecules and their reported pIC50.
>>> print(df.to_string())
                                 cpd_smiles                       measured_on  experimental_result
0  Cc1ccc(-n2nc(C(C)(C)C)cc2NC(=O)Nc2ccc(OCc3ccnc(Nc4cncc(N5CC(O)C5)n4)c3)c3ccccc23)cc1  p38MAPKγ (MAPK12) (Homo sapiens)                 6.77
1  CSc1cccc(-n2nc(C(C)(C)C)cc2NC(=O)Nc2ccc(OCc3ccnc(Nc4cnccn4)c3)c3ccccc23)c1  p38MAPKγ (MAPK12) (Homo sapiens)                 6.97

[1] Cc1ccc(-n2nc(C(C)(C)C)cc2NC(=O)Nc2ccc(OCc3ccnc(Nc4cnc(C(=O)N5CCC[C@@H](O)C5)cn4)c3)c3ccccc23)cc1
[2] Cc1ccc(-n2nc(C(C)(C)C)cc2NC(=O)Nc2ccc(OCc3ccnc(Nc4cnc(C(=O)NCCCO)cn4)c3)c3ccccc23)cc1
I'm curious whether 1 or 2 has the smaller pIC50 number. Which is it? Lab log: write the label of the selected item as the result.
1
(1: 7.01, 2: 7.46)

[a] Cc1ccc(-n2nc(C(C)(C)C)cc2NC(=O)Nc2ccc(OCc3ccnc(Nc4cnc(C(=O)NCCN5CCN(C)CC5)cn4)c3)c3ccccc23)cc1
[b] CN(C)c1ccc(-n2nc(C(C)(C)C)cc2NC(=O)Nc2ccc(OCc3ccnc(Nc4cnccn4)c3)c3ccccc23)cn1
[c] Cc1ccc(-n2nc(C(C)(C)C)cc2NC(=O)Nc2ccc(OCc3ccnc(Nc4cnccn4)c3)c3ccccc23)cc1F
[d] COc1cnc(Nc2cc(COc3ccc(NC(=O)Nc4cc(C(C)(C)C)nn4-c4ccc(C)cc4)c4ccccc34)ccn2)cn1
Order these by pIC50, descending, and give the full ranking. Your answer should be the labels, listed in the requested order.
a, c, b, d
(a: 7.33, c: 6.98, b: 6.37, d: 5.34)
